molecular target: T1, human IL-4Rα (hIL-4Rα) monomeric protein (human, UniProt P24394 26-232, limits assumed); test: barcoded-antigen count on source cell (scRNA-seq)
T1 construct: also called hIL-4Rα antigen; barcoded hIL-4Rα
reported property: REGN560.L15_ab_raw (counts)
Give the number; counts is assumed, so skip it.

Entry under review: Table 1 Line # 13 antibody (BM_Plasma_cell) (antibody, human IgG4, V domains shown, Cloned with human IgG4/human Igk constants for Kd; barcode counts are of the source cell's own IgG) VH: EVQLVESGGEMIRPGGSLRLSCAASGFIFDDYGMSWIRQAPGKGLEWVSGINWNGGHTGYSDSVKGRFTISRDNAKNSLYLQMNSLRAEDTALYHCVRDSSSSWYGVFDYWGQGTLVTVSS VL: DIQMTQSPSSLSASVGDRVTITCRASQGISNSLAWYQQKPGTVPKLLIFAASTLLSGIPSRFSGGGSGTDFTLTISSLQPEDVATYYCQNYNSAPRTFGQGTKVEIK . Reported REGN560.L15_ab_raw?
2930

Entry under review: Table 1 Line # 11 antibody (BM_Plasma_cell) (antibody, human IgG4, V domains shown, Cloned with human IgG4/human Igk constants for Kd; barcode counts are of the source cell's own IgG) VH: EVQLVESGGGLVQPGRSLRLSCAASGFTFDDYAMHWVRQAPGKGLEWVSGISWNSGSIGYADSVKGRFTISRDNAKNSLYLQMNSLRAEDTALYYCARDYSSAWYGYFDSWGQGTLVTVSS VL: DIQMTQSPSSLSASVGDRVTITCRASQGINNYLAWYQQKPGKIPKLLIFTASTLQSGVPSRFSGSGSGTDFTLTINSLQPEDVATYYCQNYNSVPRTFGQGTKVEIK . Reported REGN560.L15_ab_raw?
3210

Entry under review: Table 1 Line # 2 antibody (BM_Plasma_cell) (antibody, human IgG4, V domains shown, Cloned with human IgG4/human Igk constants for Kd; barcode counts are of the source cell's own IgG) VH: EVRLVESGGGLVQPGRSLRLSCAASGFTFDDYAMHWVRQAPGRGLEWVSGISWKGDALGYADSVKGRFTISRDNAKNSLYLQMSSLRAEDTALYYCAKDTGSYHYYYGLDVWGQGTTVAVSS VL: DIQMTQSPSSLSASVGDRVTITCRASQGIRTDLGWYQQKPGKAPKRLIYAASNLHGGVPSRFSGTGSGTDFTLTISSLQPEDFATFFCLQHYSYPLTFGGGTKVEIK . Reported REGN560.L15_ab_raw?
6540

Every entry's value here was drawn from patent US20230349919A1.
